# testSystem: Recombinant ROCK2 (amino acids 1-552) (Homo sapiens (Human), UniProt O75116)
# Sequence (O75116 1-552): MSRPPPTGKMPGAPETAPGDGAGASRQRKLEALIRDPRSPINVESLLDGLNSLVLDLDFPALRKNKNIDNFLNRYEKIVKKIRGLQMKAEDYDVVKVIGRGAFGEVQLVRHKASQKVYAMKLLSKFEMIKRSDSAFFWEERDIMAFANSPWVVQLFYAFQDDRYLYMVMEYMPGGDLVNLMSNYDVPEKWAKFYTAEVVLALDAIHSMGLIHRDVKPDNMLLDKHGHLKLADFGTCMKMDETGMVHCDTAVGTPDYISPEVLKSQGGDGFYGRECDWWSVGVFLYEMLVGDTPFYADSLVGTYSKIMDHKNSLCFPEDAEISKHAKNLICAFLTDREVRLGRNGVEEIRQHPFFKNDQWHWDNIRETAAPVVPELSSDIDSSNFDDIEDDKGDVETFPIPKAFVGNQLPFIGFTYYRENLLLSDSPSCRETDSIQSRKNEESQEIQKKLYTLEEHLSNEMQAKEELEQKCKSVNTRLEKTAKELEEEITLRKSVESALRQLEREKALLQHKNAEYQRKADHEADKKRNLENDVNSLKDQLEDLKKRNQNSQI
# assayProcedure: Z′-Lyte kinase assay, ROCK2
# Type: biochemical
# experimentalConditions: 9 points 2-fold serial dilution
Reported IC50 values for the following compounds.
measureName: IC50 (nM)

c1ccc(C2CN(c3nccc(Nc4ccc(-c5ccncc5)cc4)n3)CCCN2)cc1 (stereo not shown) [Example 18] :: 206
CC(C)C1CN(c2nccc(Nc3ccc4[nH]ncc4c3)n2)CCCN1 (stereo not shown) [Example 65] :: 353
CCC1CN(c2nccc(Nc3ccc4[nH]ncc4c3)n2)CCCN1 (stereo not shown) [Example 62] :: 177
c1cc(Nc2ccc3[nH]ncc3c2)nc(N2CC3CC2CN3)n1 (stereo not shown) [Example 201] :: 27
Fc1cnc(N2CC3CCC2CN3)nc1Nc1ccc2[nH]ncc2c1 (stereo not shown) [Example 154] :: 245
CC1CNCCN1c1ncc(F)c(Nc2ccc3[nH]ncc3c2)n1 (stereo not shown) [Example 216] :: 70
c1cc2nc(N3CCCNCC3)nc(Nc3ccc4[nH]ncc4c3)c2s1 [Example 10] :: 20
CC1CN(c2nccc(Nc3ccc4[nH]ncc4c3)n2)CCN1 (stereo not shown) [Example 225] :: 98
CC1CN(c2nccc(Nc3ccc4[nH]ncc4c3)n2)C(C)CN1 (stereo not shown) [Example 68] :: 294
CC1CNCCN1c1nccc(Nc2ccc3[nH]ncc3c2)n1 (stereo not shown) [Example 232] :: 22
CC1CNCCN(c2nccc(Nc3ccc4[nH]ncc4c3)n2)C1 (stereo not shown) [Example 237] :: 104
Cc1cnc(N2CCCNC(C)C2)nc1Nc1ccc2[nH]ncc2c1 (stereo not shown) [Example 102] :: 1100
Clc1cnc(N2CCCNCC2)nc1Nc1ccc2[nH]ncc2c1 [Example 4] :: 139
Fc1cnc(N2C3CNCC2C3)nc1Nc1ccc2[nH]ncc2c1 [Example 220] :: 5.9
Cc1cc(Nc2ccc3[nH]ncc3c2)nc(N2CCNC(C)C2)n1 (stereo not shown) [Example 204] :: 85
c1cc(Nc2ccc3[nH]ncc3c2)nc(N2CCNC3(CC3)C2)n1 [Example 66] :: 380
c1cc(Nc2ccc3[nH]ncc3c2)nc(N2CC3CCC(C2)N3)n1 [Example 229] :: 77

----------
# testSystem: Recombinant ROCK2 (amino acids 1-552) (Homo sapiens (Human), UniProt O75116)
# assayProcedure: Z′-Lyte kinase assay, ROCK2
# Format: biochemical
# experimentalConditions: 9 points 2-fold serial dilution
Criterion: IC50 strictly under 60 nM. Met: True. Not met: False.

CC1CN(c2ncc(F)c(Nc3ccc4[nH]ncc4c3)n2)CCCN1 (stereo not drawn) :: False
Cc1nc(N2CCNCC2)nc(Nc2ccc3[nH]ncc3c2)c1C :: False
CC(C)C1CN(c2nccc(Nc3ccc4[nH]ncc4c3)n2)CCN1 (stereo not drawn) :: False
c1cc(Nc2ccc3[nH]ncc3c2)nc(N2C3CNCC2C3)n1 :: True
c1cc(Nc2ccc3[nH]ncc3c2)nc(N2CC3CC(C2)N3)n1 :: False
CC(C)C1CCN(c2nccc(Nc3ccc(-c4ccncc4)cc3)n2)CCN1 (stereo not drawn) :: False
Fc1cnc(N2CC3CC2CN3)nc1Nc1ccc2[nH]ncc2c1 (stereo not drawn) :: True
c1cc2nc(N3CCCNCC3)nc(Nc3ccc(-c4cn[nH]c4)cc3)c2s1 :: True

----------
# testSystem: Recombinant ROCK2 (amino acids 1-552) (Homo sapiens (Human), UniProt O75116)
# assayProcedure: Z′-Lyte kinase assay, ROCK2
# Type: biochemical
# experimentalConditions: 3 μM compound; read-out: ROCK2 % inh. @ [conc]
measureName: inhibition at 3 µM (%)

CCC1CN(c2nccc(Nc3ccc4[nH]ncc4c3)n2)CCN1 (centres unmarked) :: 98.8
CCC1CN(c2nccc(Nc3ccc4[nH]ncc4c3)n2)CCCN1 (centres unmarked) :: 100
c1cc(Nc2ccc3[nH]ncc3c2)nc(N2CC3CNCC3C2)n1 (centres unmarked) :: 0
CC1CN(c2nccc(Nc3ccc4[nH]ncc4c3)n2)CCN1 (centres unmarked) :: 98.3
CC(C)C1CN(c2nccc(Nc3ccc4[nH]ncc4c3)n2)CCN1 (centres unmarked) :: 100
